# Assayed system: Alpha-2C adrenergic receptor (Homo sapiens)
# Assay notes: modulators of alpha2C/GIRK thallium flux, primary screen, cell-based, HEK293 alpha2C/GIRK1/2 (AID 624);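 further: slope of fluorescence ratio to pre-addition baseline per second over 15 to 24 s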
# Condition notes: thallium flux BTC fluorescence, at 10 µM, actives lie on both sides
// reported slope for each item listed
# output: bare number, no unit

Worked examples follow.
c1coc(CN(Cc2cccs2)Cc2nnnn2C2CCCCC2)c1	0.00524
COCCN(Cc1cc2cc3c(cc2n2nnnc12)OCO3)C(=O)c1ccccc1F	0.00537
CN1/C(=C\C(=O)C(F)F)C(C)(C)c2ccccc21	0.00399
COc1ccc(C2CC(=O)C3=C(C2)Nc2ccccc2N(C(=O)C2CC2)C3c2cccnc2)cc1OC (stereo not given)	0.00392
O=C(CSc1nnc2scc(-c3ccccc3)n12)Nc1nsc(-c2ccccc2)n1	0.00626
COc1cccc(-c2nc(CS(=O)(=O)CC(=O)N3CCc4ccccc4C3)c(C)o2)c1	0.00747

What slope appears in the records for this compound with Alpha-2C adrenergic receptor (Homo sapiens)? CCCn1c(O)c(CN2CCCC(C)C2)c(C)c(C#N)c1=O (stereo not given)
0.00503

Follow-up item: O=C(O)C1CC=CCC1C(=O)Nc1ccc(S(=O)(=O)N2CCCc3ccccc32)cc1 (stereo not given)
0.00437

Follow-up item: COC(=O)[C@@H](NC(=O)NCc1ccccc1Cl)C(C)C
0.00402

Follow-up item: COC(=O)c1cc(OC)c(OC)cc1NC(=O)c1ccc(Br)o1
0.00764

###

// reported inhibition for each item listed
# Assay notes: inhibitors of E-selectin induction by TNFa, primary screen, imaging, HUVEC, immunofluorescence, MLSMR starter and 10KST1 sets (AID 487);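 further: signal is fraction of cell area covered by stained E-selectin grains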
# Condition notes: HUVEC TNFalpha-induced E-selectin immunofluorescence imaging, at 2 µM; hits give high values
Calls of active or inactive are those of the source.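 The calls were made as follows: active = visually confirmed hit in the image check and inhibition above 20%; inconclusive = visually confirmed hit but inhibition not above 20%; inactive = no visual hit in the image check.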

Worked examples follow.
N#CC1=C(N)C(C#N)(C#N)[C@H](c2ccsc2)[C@H]2COCC=C12	8.2% (inactive)
CNC(=O)c1ccc(N(Cc2ccccc2C)S(C)(=O)=O)cc1	-40.6% (inactive)
COc1ccccc1C(=O)n1nc(-c2ccc(Cl)cc2)nc1N	-17.2% (inactive)
CCOC(=O)C1=C(C)N(C)C(=O)NC1c1ccccc1OC (stereo unspecified)	50.2% (inactive)
O=C1NCC(COCC2CC=CCC2)O1 (stereo unspecified)	50.9% (inactive)

Please find the next compound below.
Quick one: inhibition of CC1CCc2c(sc(N)c2C(N)=O)C1 (stereo unspecified) ?
16.5% (inactive)

###

// reported NADPH fluorescence slope for each item listed
# Assayed system: Voltage-gated potassium channel subunit beta-2 (Rattus norvegicus)
# Assay notes: KvBeta positive modulators, primary screen, biochemical, NADPH fluorescence (AID 623);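 further: fluorescence intensity change per second fitted from 20 to 320 s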
# Condition notes: Recombinant KvBeta, NADPH fluorescence decrease slope, 10 min; at 10 µM; hits give low values
# output: bare number, no unit

Worked examples follow.
Cn1c(=O)c2c(nc(NCc3ccco3)n2Cc2ccccc2Cl)n(C)c1=O	-2.4e-05
CCOC(=O)c1c(N)sc(=S)c2c1CCC2	-0.000294
CSc1cccc(NC(=O)C2CCN(S(=O)(=O)c3ccc(F)cc3)CC2)c1	5.7e-05
Cc1csc(NC(=O)c2cc3c(s2)-c2ccccc2OC3)n1	-1.9e-06
Cn1ccnc1C(O)c1ccc(OCc2ccccc2)cc1 (configuration not stated)	-0.000123
COC(=O)c1ccccc1NC(=O)Cn1ccnc1	-6.8e-05
CCC1(C)Cc2c(sc(NC(=O)CCC(=O)O)c2C#N)CO1 (configuration not stated)	-5.7e-05
CC(C)c1nnc(NC(=O)C2CCCCC2)s1	-6.4e-05
CCOC(=O)c1[nH]c2ccc(OC)cc2c1NC(=O)CCN1CCCC(C)C1 (configuration not stated)	-1.8e-05
COc1ccc(S(=O)(=O)N2CCN(c3ccc(C)cc3C)CC2)cc1OC	-3.9e-05

Quick one: NADPH fluorescence slope of CC(=O)Nn1c(C)nnc1-n1nc(C)cc1C ?
-9.2e-05

Follow-up item: O=C(COC(=O)C12CC3CC(CC(C3)C1)C2)NCc1ccco1
7.7e-06

###

# Assay notes: inhibitors of E-selectin induction by TNFa, primary screen, imaging, HUVEC, immunofluorescence, MLSMR starter and 10KST1 sets (AID 487);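 further: signal is fraction of cell area covered by stained E-selectin grains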
# Condition notes: HUVEC TNFalpha-induced E-selectin immunofluorescence imaging, at 2 µM; hits give high values
// map inhibition to label using 0: < -70%; 1: ≥ -70% and < -10%; 2: ≥ -10%

Consider the worked cases shown below.
CCOC(=O)C1=C(N)OC2=C(C(=O)CC(C)(C)C2)C1c1ccco1 (configuration not stated)	1
CCCC(CCC(=O)Nc1ccc(C(=O)OCC)cc1)C(=O)O (configuration not stated)	0
Cc1cc(C)c2c(n1)nn1c(C3CC3)cc(C(F)(F)F)nc21	1

Where would O=C(/C=C1\NC2(CCCC2)Cc2ccccc21)N1CCOCC1 land among the classes by reported inhibition?
0

Follow-up item: C(=C\c1ccccc1)/CN1CCN(Cc2ccc3c(c2)OCCO3)CC1
1

Follow-up item: Cc1csc2nc(CSc3ccc(Cl)cc3)cn12
0

Follow-up item: COc1cccc(Cn2c(NCc3ccccn3)nc3c2c(=O)n(C)c(=O)n3C)c1
0

Follow-up item: NCCCCCc1nnc(SC/C=C/c2ccccc2)o1
2

Follow-up item: CC1(C)CC(=O)C2=C(C1)OC(N)=C(C#N)C21C(=O)N(CN2CCOCC2)c2ccccc21 (configuration not stated)
0

Follow-up item: COc1ccc(NC(=O)CSc2nnc(Cc3cccn3C)n2-c2ccc(F)cc2)cc1
0

Follow-up item: CCOc1cc(S(=O)(=O)Nc2ccccn2)ccc1F
2

Follow-up item: CCOC(=O)c1oc2ccccc2c1CSc1nnnn1-c1ccc(C)cc1
1

Follow-up item: O=C(Cn1cnc2c(nnn2-c2ccc(F)cc2)c1=O)N1CCCc2ccccc21
2

Follow-up item: Cc1nc(=O)c(-c2ccccc2)c(C)n1-c1ccc(S(N)(=O)=O)cc1
0

Follow-up item: CCOC(=O)c1c(NC(=O)COC(=O)c2c(C)noc2C)sc2c1CCC2
0

Follow-up item: O=C(NCc1ccccc1)c1cc(-c2ccco2)on1
1

Follow-up item: CC(C)Cc1nc(N2CCOCC2)c(C#N)c2c1COC(C)(C)C2
0

Follow-up item: CCN1C(=O)c2ccccc2S(=O)(=O)c2ccc(C(=O)NCc3cccnc3)cc21
1

Follow-up item: O=C(CSc1nnc(CNC(=O)c2c(F)cccc2Cl)o1)c1ccccc1
0

Follow-up item: COCCCn1c2nc3ccccc3nc2c2c(=O)n(-c3ccccc3OC)c(C)nc21
1

Follow-up item: Cc1csc(NC(=O)CCn2c(=O)oc3ccccc32)n1
2

Follow-up item: O=C(Nc1ccccc1-c1ccccc1)NC1CCN(C(=O)N2CCOCC2)CC1
2

Follow-up item: CCOc1ccc(NC(=O)CN2C(=O)C3CCCN3C2=O)cc1 (configuration not stated)
1

Follow-up item: O=C(Sc1nnnn1C1CCCCC1)c1cccs1
0

Follow-up item: CCc1ccc(CNCc2cccnc2)cc1
1

Follow-up item: CSc1ccccc1NC(=O)c1cnc2n(c1=O)CCS2
2

###

# Assay notes: inhibitors of TNFa-induced NFkB p65 translocation, primary screen, imaging, HUVEC, MLSMR starter and 10KST1 sets (AID 438);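 further: compound added about 3h40 before a 20 min TNFalpha stimulation; signal is the nuclear over cytoplasmic p65 intensity ratio per well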
# Condition notes: HUVEC TNFa-induced p65 nuclear translocation; at 2 µM, hits give high values, 0% TNFa-plus-vehicle, 100% no-TNFa wells
// reported inhibition for each item listed
Note: unit % is implicit; provide only the numeric part.

Worked examples follow.
N#Cc1c(N)nc(SCC(=O)NCc2ccc3c(c2)OCO3)c(C#N)c1-c1cccs1	-0.3
N#CC(C#N)C(c1ccsc1)c1c(-c2ccccc2)[nH][nH]c1=O (stereo unspecified)	-0.5

Quick one: inhibition of O=c1cc(N2CCCCC2)nc2n1CCCS2 ?
2.3

Follow-up item: CCOc1cc(-c2nc(-c3ccc(C)nc3OCC)no2)cc(OCC)c1OCC
0

###

# Assay notes: inhibitors of E-selectin induction by TNFa, primary screen, imaging, HUVEC, immunofluorescence, MLSMR starter and 10KST1 sets (AID 487);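 further: signal is fraction of cell area covered by stained E-selectin grains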
# Condition notes: HUVEC TNFalpha-induced E-selectin immunofluorescence imaging, at 2 µM; hits give high values
# if value of inhibition reaches -50%, tag True; if it stays below, tag False

Cc1nn(CC(N)=O)c(=O)c2ccccc12	False
CCCC(=O)Nc1nnc(CC(=O)OCC)s1	True
COc1cc(S(=O)(=O)N2CCN(c3ccc(F)cc3)CC2)ccc1Cl	True
CCCNC(=O)c1ccccc1NC(=O)CN(c1ccccc1OCC)S(C)(=O)=O	False

Now look at this entry.
Hi team, for CCn1c(SCC(=O)NC)nnc1C(C)C , is the recorded inhibition at or above -50%?
True

###

# Assayed system: Voltage-gated potassium channel subunit beta-2 (Rattus norvegicus)
# Assay notes: KvBeta enzyme negative modulators, primary screen, biochemical, NADPH fluorescence (AID 622);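 further: slope of raw intensity against log time taken from 70 to 1610 s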
# Condition notes: recombinant KvBeta, 4-cyanobenzaldehyde reduction, at 10 µM, hits give high values
Property label: fluorescence slope
# output: bare number, no unit

Worked examples follow.
NC(=O)c1ccccc1NC(=O)CCCN1C(=O)CCC1=O	-0.601
O=C(CCS(=O)(=O)c1cc(Br)cc2c1N(C(=O)C1CC1)CC2)NCC1CCCO1 (stereo unspecified)	-0.314
Cc1cc(=O)n(C)c(=O)n1CCCNc1ccccc1	-0.333

Quick one: fluorescence slope of Cc1ccnc(SCCn2c(N3CCN(Cc4ccccc4)CC3)nc3c2c(=O)[nH]c(=O)n3C)n1 ?
-0.542

Data provenance: PubChem BioAssay
